Listing of recorded Stability in AB White, 8° C. (content by LCMSMS) by entry.
- PROCEDURE_SUMMARY: Stability of cannabinoid and Vitamin E components of Beverage 1 (AB White) stored at 8° C. and 21-25° C., LCMSMS over 570 days
- Format: physicochemical
- ASSAY_SETUP: beverage stored at 8° C., day 24
Entry rule: numbers only, all in µg/mL.

# count of solved cases: 5
CCCCCc1cc(O)c2c(c1)OC(C)(CCC=C(C)C)C=C2 (stereo not shown)
0.316
C=C(C)[C@@H]1CCC(C)=C[C@H]1c1c(O)cc(CCCCC)c(C(=O)O)c1O
1.72
C=C(C)[C@@H]1CCC(C)=C[C@H]1c1c(O)cc(CCC)cc1O
0.147
CCCCCc1cc(O)c(C/C=C(\C)CCC=C(C)C)c(O)c1
4.83
C=C(C)[C@@H]1CCC(C)=C[C@H]1c1c(O)cc(CCCCC)cc1O [CBD, cannabidiol, reference compound]
28.44

Task item: Would you mind telling me what Stability in AB White, 8° C. (content by LCMSMS) value was observed for "CCCCCc1cc(O)c2c(c1)OC(C)(C)c1ccc(C)cc1-2" ?
Reply: 2.75

Task item: Would you mind telling me what Stability in AB White, 8° C. (content by LCMSMS) value was observed for CCCCCc1cc2c(c(O)c1C(=O)O)[C@@H]1C=C(C)CC[C@H]1C(C)(C)O2 [D9 THCA, delta-9-tetrahydrocannabinolic acid] ?
Reply: 0.926

Task item: Would you mind telling me what Stability in AB White, 8° C. (content by LCMSMS) value was observed for CCCc1cc(O)c2c(c1)OC(C)(C)[C@@H]1CCC(C)=C[C@@H]21 [THCV, delta-9-tetrahydrocannabivarin] ?
Reply: 3.56

Task item: Would you mind telling me what Stability in AB White, 8° C. (content by LCMSMS) value was observed for CCCCCc1cc(O)c2c(c1)OC(C)(C)[C@@H]1CCC(C)=C[C@@H]21 [D9 THC, delta-9-tetrahydrocannabinol, reference compound] ?
Reply: 11.87

Task item: Would you mind telling me what Stability in AB White, 8° C. (content by LCMSMS) value was observed for CCCCCc1cc(O)c2c(c1)OC1(C)CCC3C1C2C3(C)C (stereo not shown) ?
Reply: 0.548
